# TARGET OR SYSTEM: CLEC12A/CLL1 (Homo sapiens) (UniProt Q5QGZ9)
# TEST DETAILS: ELISA on plate coated with 1 ug/mL human CLEC12A; sdAb detected with mouse anti-myc mAb and goat anti-mouse IgG-HRP; Abs 450nm
pEC50: −log10 of the molar value.
MEASURE NAME: pEC50

{"BINDER": "VHH clone 2H3 (VHH) VHH: QVQLQESGGGLVQAGGSLRLSCVASGSIRSINVMGWYRQAPGKQRELVAACASDGNTYYADSVKGRFTISRDNAEKTVYLQMNNLKPDDTAVYYCDANSRGNYYSGQGTQVTVSS", "VALUE": 9.21}

[P] VHH clone 1H1 (VHH) VHH: QVQLQESGGGLVQPGGSLRLSCAASGFTFNSYAMTWVRQAPGKGLEWVSDINSGGGSTNYADSVKGRFTISRDNAKNTLYLQMNSLKPEDTAVYYCATELRGSDYYRGPIREYAYWGQGTLVTVSS
[Q] VHH clone 1G6 (VHH) VHH: QVQLQQSGGGLVQAGGSLRLSCAASGSIFAINEINLMGWYRQAPGKQRELVAACASDGNTYYADSVKGRFTISRDNAEKTVYLQMNNLKPDDTAVYYCDANSRGNYYSGQGTQVTVSS
[R] VHH clone 1B5 (VHH) VHH: QVQLQESGGGLVQAGGSLRLSCVVSGATSNVNAMGWYRQAPGKERELVAAISSGGSTSYRDSVKGRFTISRDNAKNTLYLQMNSLKPEDTAMYYCAAQDWATEGYEYDYWGQGTLVTVSS
Exam item: list the entries in increasing order of pEC50. Provide the labels, sequenced as the question asks. R, P, Q
(R: 7.71, P: 9.05, Q: 9.32)
